# tested-system: T1, Cyno CD47 ECD protein, His-tagged, monomer (cyno)
# T1 construct: extracellular domain; also called cynomolgus CD47
# assay: ProteOn SPR; mAb captured, ECD monomer as analyte
Please respond with reported pKd for every item in the list.
One number for each entry, as −log10 of the molar value.

A selection of reference data follows.
binder	pKd
C47B237 (antibody, V domains shown, human IgG2sigma/kappa) VH: EVQLVQSGAEVKKPGESLKISCKGSGYSFTSYWIGWVRQMPGKGLEWMGIIYPGDSDTRYSPSFQGQVTISADKSISTAYLQWSSLKASDTAMYYCARVGRFASHQLDYWGQGTLVTVSS VL: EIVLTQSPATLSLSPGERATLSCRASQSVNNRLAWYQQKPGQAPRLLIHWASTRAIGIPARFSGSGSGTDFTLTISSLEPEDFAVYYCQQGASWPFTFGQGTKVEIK	8.45
C47B239 (antibody, V domains shown, human IgG2sigma/kappa) VH: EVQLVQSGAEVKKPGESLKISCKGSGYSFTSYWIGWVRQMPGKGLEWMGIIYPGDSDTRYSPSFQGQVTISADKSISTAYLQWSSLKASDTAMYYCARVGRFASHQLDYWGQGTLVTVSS VL: EIVLTQSPATLSLSPGERATLSCRASQSVSNRLAWYQQKPGQAPRLLIYGASNRATGIPARFSGSGSGTDFTLTISSLEPEDFAVYYCQQGRSWPFTFGQGTKVEIK	8.01

Below: the item to evaluate.
C47B219 (antibody, V domains shown, human IgG2sigma/kappa) VH: EVQLVQSGAEVKKPGESLKISCKGSGYSFTDSWIGWVRQMPGKGLEWMGIIYPGDSDTRYSPSFQGQVTISADKSISTAYLQWSSLKASDTAVYYCARVGRFASHQLDYWGQGTLVTVSS VL: EIVLTQSPATLSLSPGERATLSCRASQSVGSRLAWYQQKPGQAPRLLIYWASTRATGIPARFSGSGSGTDFTLTISSLEPEDFAVYYCQQGAYWPFTFGQGTKVEIK yielded pKd of 8.78
